# studyTarget: Recombinant human LTC4 synthase (Homo sapiens, UniProt Q16873)
# Sequence (Q16873 1-150): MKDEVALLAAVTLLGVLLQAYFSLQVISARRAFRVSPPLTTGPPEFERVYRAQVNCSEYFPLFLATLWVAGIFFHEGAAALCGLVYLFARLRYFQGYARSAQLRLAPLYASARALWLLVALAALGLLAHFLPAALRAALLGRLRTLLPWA
# experiment: LTC4 synthase assay (conversion of LTA4 methyl ester to LTC4 methyl ester, HPLC)
reportedProperty: IC50 (nM)
Quick reminder: number only, in nM, skip the unit.

// solved cases for IC50 follow
{"smilesStr": "O=C(Nc1ccc(C(=O)c2ccc(NC(=O)c3ccc(C(F)(F)F)cc3F)c(C(=O)O)c2)cc1C(=O)O)c1ccc(C(F)(F)F)cc1", "resultValue": 73}
{"smilesStr": "CCCCOc1ccc(S(=O)(=O)Nc2ccc(C(=O)c3ccc(NC(=O)c4ccc(OC(C)C)cc4)c(C(=O)O)c3)cc2C(=O)O)cc1", "resultValue": 86}
{"smilesStr": "O=C(c1ccc(NS(=O)(=O)c2ccc([N+](=O)[O-])cc2)c(C(=O)O)c1)c1ccc(NS(=O)(=O)c2ccc([N+](=O)[O-])cc2)c(C(=O)O)c1", "resultValue": 191}

Next:
## Input // query IC50 value for entry CC(C)Oc1ccc(Nc2ccc(C(=O)c3ccc(Nc4ccc(OC(C)C)cc4)c(C(=O)O)c3)cc2C(=O)O)cc1
## Output 258

----------
# studyTarget: Recombinant human LTC4 synthase (Homo sapiens, UniProt Q16873)
# Construct: made in house; host or cells: Pichia pastoris ('Piccia pastoralis' [sic])
# experiment: LTC4 synthase assay (conversion of LTA4 methyl ester to LTC4 methyl ester, HPLC)
# Format: biochemical
# experimentalConditions: inhibitor concentration 10 μM; read-out: Percantage Inhibition at 10 μM (unless specified otherwise)
A collection of molecules and their measured inhibition at 10 µM
Please give a number only; it is taken to be in %.

Here are 2 molecules together with their reported answers.
{"smilesStr": "CN(c1ccc(Cl)cc1)c1ccc(C(=O)c2ccc(Oc3cccc4c3CCCC4)c(C(=O)O)c2)cc1", "studyTarget": "Recombinant human LTC4 synthase (Homo sapiens, UniProt Q16873)", "resultValue": 88}
{"smilesStr": "CN(c1ccc(Cl)cc1)c1ccc(C(=O)c2ccc(Oc3cccc4c3CCCC4)c(-c3nnn[nH]3)c2)cc1", "studyTarget": "Recombinant human LTC4 synthase (Homo sapiens, UniProt Q16873)", "resultValue": 97}

## Input Recorded inhibition at 10 µM for O=C(Nc1ccc(C(=O)c2ccc(NC(=O)c3cccc4c3OC(F)(F)O4)c(C(=O)O)c2)cc1)c1cccc(Cl)c1 , please?
## Output 100

## Input Fill in the blank: the reported inhibition at 10 µM of CN(c1ccc(F)c(F)c1)c1ccc(C(=O)c2ccc(NC(=O)c3cc(Cl)ccc3O)cc2)cc1C(=O)O is ____.
## Output 100

## Input Return reported inhibition at 10 µM; argument: O=C(c1ccc(Oc2ccc(C(F)(F)F)cc2)cc1)c1ccc(Oc2ccc(F)c(F)c2)c(C(=O)O)c1
## Output 96

## Input Given CC(C)Oc1ccc(Nc2ccc(C(=O)c3ccc(Nc4ccc(OC(C)C)cc4)c(C(=O)O)c3)cc2C(=O)O)cc1 , state its recorded inhibition at 10 µM.
## Output 99
